Assay: qHTS assay to identify small molecule agonists of the estrogen receptor alpha (ER-alpha) signaling pathway in the presence of an antagonist - cell viability counter screen (AID 1259386);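 further: cells exposed to compounds for 22 h at 37 °C before the viability read; nearly all actives have a fitted effect of over 30% in size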
Conditions: VM7Luc4E2 viability, CellTiter-Fluor fluorescence, 22 h; series mostly up to 92.4 µM
From the text: National Center for Advancing Translational Sciences [NCATS] NIH Chemical Genomics Center [NCGC] U.S. Environmental Protection Agency [EPA] National Institutes of Environmental Health Sciences [NIEHS] National Toxicology Program [NTP] U.S. Food and Drug Administration [FDA] Estrogen receptor (ER), a member of nuclear hormone receptor plays an important role in development, metabolic homeostasis and reproduction. […]
Records with an inconclusive call do not appear. Active and inactive are the calls of the source. The call rests on the fitted dose curve; in most records, active means well fitted cell-killing curve with a large enough effect in the repeat runs; inconclusive means weak or mixed curves, or effect the other way; inactive means no such curve, though single readings can be large or run the other way.
Please state which outcome applies, choosing from 1 (yes) (active), 0 (no) (inactive)

compound: Cc1cc2c3c(c1)C(c1ccccc1)=N[C@@H](NC(=O)c1ccncc1)C(=O)N3CC2
categoryLabel: 0 (no)

compound: O=C(NC(=O)c1ccccc1Cl)Nc1ccc(OC(F)(F)F)cc1
categoryLabel: 0 (no)

Record lookup: outcome of this test for `N#CC(C#N)=NNc1cccc(Cl)c1` ?
1 (yes)

One more compound: CN1[C@@H]2CC[C@H]1CC(O)C2 (stereo partly drawn)
0 (no)

One more compound: `CSC(C)(C)/C=N/O`
0 (no)

One more compound: `CN(C)CCc1c[nH]c2ccccc12`
0 (no)

One more compound: CC1CN1 (stereo not drawn)
0 (no)

One more compound: `CCC1(CC)C(=O)N=C(O)NC1=O`
0 (no)

---

Molecular target: Cytochrome P450 2C19 (Homo sapiens) (UniProt P33261)
Sequence (P33261 whole entry, looked up): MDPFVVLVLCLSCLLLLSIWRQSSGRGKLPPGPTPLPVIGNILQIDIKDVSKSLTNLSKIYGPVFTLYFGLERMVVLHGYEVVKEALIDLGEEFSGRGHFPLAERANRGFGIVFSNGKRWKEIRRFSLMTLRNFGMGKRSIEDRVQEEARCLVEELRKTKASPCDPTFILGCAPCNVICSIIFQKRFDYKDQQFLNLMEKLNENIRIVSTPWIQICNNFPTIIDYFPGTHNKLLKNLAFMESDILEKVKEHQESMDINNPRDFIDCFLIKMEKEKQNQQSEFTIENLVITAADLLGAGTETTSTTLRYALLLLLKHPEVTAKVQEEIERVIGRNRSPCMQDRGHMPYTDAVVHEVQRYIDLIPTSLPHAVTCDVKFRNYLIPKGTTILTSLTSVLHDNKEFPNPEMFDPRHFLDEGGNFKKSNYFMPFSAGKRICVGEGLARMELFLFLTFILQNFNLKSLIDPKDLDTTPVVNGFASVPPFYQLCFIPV
Test: Cytochrome P450 Family 2 Subfamily C Member 19 (CYP2C19) small molecule antagonists: luciferase reporter qHTS assay (AID 1671197); further: nearly all actives have a fitted effect of over 65% in size
Details: P450-Glo CYP2C19 enzyme, luciferin luminescence, 1 h; series mostly up to 115 µM
Inconclusive results are not listed. Calls of active or inactive are those of the source. Calls come from the whole dose curve; as a rule, active = well fitted inhibition curve with a large enough effect in the repeat runs; inconclusive = weak or mixed curves; inactive = no such curve, though single readings can be large or run the other way.
Please state which outcome applies, choosing from t for active, f for inactive

molecule: Nc1ccc(Cl)cc1C(=O)c1ccccc1F
categoryLabel: t
--
molecule: CCn1cc[n+](C)c1 (tested in a mixture with another compound)
categoryLabel: f
--
molecule: CNC(=O)Oc1cc(C)cc(C(C)C)c1
categoryLabel: t

Record lookup: outcome of this test for `CN(C)c1ccc(N)cc1` ?
t

One more molecule: `O=[N+]([O-])c1cc(C(F)(F)F)c(Cl)c([N+](=O)[O-])c1Nc1ncc(C(F)(F)F)cc1Cl`
t

One more molecule: `COP(=S)(OC)Oc1nc(Cl)c(Cl)cc1Cl`
t

One more molecule: `CSC1=N[C@@](C)(c2ccccc2)C(=O)N1Nc1ccccc1`
t

One more molecule: CC(Cc1ccc(OCC(=O)O)cc1)NCC(O)c1csc(C(F)(F)F)n1 (configuration not stated)
f

One more molecule: `COC(=O)c1ccccc1S(=O)(=O)NC(=O)Nc1nc(C)nc(OC)n1`
t

One more molecule: CCCCC(CC)COC(=O)c1ccccc1C(=O)OCC(CC)CCCC (configuration not stated)
t

One more molecule: `Brc1ccc(Oc2ccc(Br)cc2Br)c(Br)c1`
t

One more molecule: `[Cl][Hg][c]1ccccc1`
t

---

Assay: qHTS assay to identify small molecule antagonists of the estrogen receptor beta (ER-beta) signaling pathway - cell viability counter screen (AID 1259382); further: nearly all actives have a fitted effect of over 55% in size
Conditions: ER-beta-UAS-bla HEK293T viability, CellTiter-Glo luminescence, 16 h; series mostly up to 92.4 µM
Excerpt: U.S. Tox21 Program National Center for Advancing Translational Sciences [NCATS] NIH Chemical Genomics Center [NCGC] U.S. Environmental Protection Agency [EPA] National Institutes of Environmental Health Sciences [NIEHS] National Toxicology Program [NTP] U.S. Food and Drug Administration [FDA] Tox21 Assay Overview: Estrogen receptor (ER), a nuclear hormone receptor, plays an important role in development, metabolic homeostasis and reproduction. […]
Results filed as inconclusive are left out. Activity calls are given as the source filed them. Calls come from the whole dose curve; as a rule, active = well fitted cell-killing curve with a large enough effect in the repeat runs; inconclusive = weak or mixed curves; inactive = flat fitted curve, though single readings scatter.
Please state which outcome applies, choosing from active, inactive

molecule: CCNc1nc(NC(C)C(C)C)nc(SC)n1 (centres undefined)
categoryLabel: inactive
//
molecule: CC[C@H](C)[C@H]1O[C@]2(C=C[C@@H]1C)C[C@@H]1C[C@@H](C/C=C(\C)[C@@H](O[C@H]3C[C@H](OC)[C@@H](O[C@H]4C[C@H](OC)[C@@H](NC)[C@H](C)O4)[C@H](C)O3)[C@@H](C)/C=C/C=C3\CO[C@@H]4[C@H](O)C(C)=C[C@@H](C(=O)O1)[C@]34O)O2
categoryLabel: active
//
molecule: CSC(=O)c1c(C(F)F)nc(C(F)(F)F)c(C(=O)SC)c1CC(C)C
categoryLabel: inactive
//
molecule: Clc1cc(Cl)c(-c2cc(Cl)c(Cl)cc2Cl)cc1Cl
categoryLabel: inactive
//
molecule: CCC[CH2][Sn]([CH2]CCC)([CH2]CCC)[O][Sn]([CH2]CCC)([CH2]CCC)[CH2]CCC
categoryLabel: active
//
molecule: CO/N=C(/C1=NOCCO1)c1ccccc1Oc1ncnc(Oc2ccccc2Cl)c1F
categoryLabel: inactive
//
molecule: O=C1C[C@@H]2OCC=C3CN4CC[C@]56c7ccccc7N1[C@H]5[C@H]2[C@H]3C[C@H]46
categoryLabel: inactive
//
molecule: Cc1ccc(C)c2ccccc12
categoryLabel: inactive

Now turn to the next molecule.
Record lookup: outcome of this test for `ClC(Cl)C(Cl)(Cl)Cl` ?
inactive

---

Assay: qHTS assay to identify small molecule agonists of the androgen receptor (AR) signaling pathway in the presence of an antagonist - cell viability counter screen (AID 1259379); further: nearly all actives have a fitted effect of over 25% in size
Conditions: MDA-kb2 viability, CellTiter-Fluor, 16 h; series mostly up to 92.4 µM
Results filed as inconclusive are left out. Activity calls are given as the source filed them. Calls come from the whole dose curve; as a rule, active = well fitted cell-killing curve with a large enough effect in the repeat runs; inconclusive = weak or mixed curves, or effect the other way; inactive = flat fitted curve, though single readings scatter.
Please state which outcome applies, choosing from active, inactive

compound: CCCCON=O
categoryLabel: inactive
//
compound: BrCCCBr
categoryLabel: inactive

Record lookup: outcome of this test for CC(C)c1c(CN(C)C(C)Cc2ccccc2)n(C)n(-c2ccccc2)c1=O (centres undefined) ?
inactive

One more compound: `N#CC(C#N)=NNc1cccc(Cl)c1`
active

One more compound: `N#Cc1ccc(N(CC(N)=O)CC(F)(F)F)cc1C(F)(F)F`
inactive

One more compound: `COc1ccc2c(c1OC)C(=O)O[C@@H]2[C@H]1c2cc3c(cc2CCN1C)OCO3`
inactive

One more compound: `O=C(Nc1ccc(F)cc1F)c1cccnc1Oc1cccc(C(F)(F)F)c1`
inactive

---

Assay: Caspase-3/7 induction in CHO-K1 cells by small molecules, qHTS cell viability counter screen (AID 1346979); further: nearly all actives have a fitted effect of over 35% in size
Settings: CellTiter-Fluor fluorescence, 17 h; series mostly up to 92.4 µM
From the text: National Center for Advancing Translational Sciences [NCATS] NIH Chemical Genomics Center [NCGC] U.S. Environmental Protection Agency [EPA] National Institutes of Environmental Health Sciences [NIEHS] National Toxicology Program [NTP] U.S. Food and Drug Administration [FDA] Apoptosis is a process of programmed cell death and plays a central role in the development of multicellular organisms. […]
Inconclusive results are not listed. The source made the active and inactive calls. The call rests on the fitted dose curve; in most records, active means well fitted cell-killing curve with a large enough effect in the repeat runs; inconclusive means weak or mixed curves, or effect the other way; inactive means no such curve, though single readings can be large or run the other way.
Please state which outcome applies, choosing from true = active, false = inactive

These recorded examples may help you get a feel for the data.
molecule: O=Cc1ccccc1
categoryLabel: false
--
molecule: O=C(O)[C@H](O)[C@@H](O)C(=O)O
categoryLabel: false
--
molecule: CC1(C)[C@H](/C=C2\CCSC2=O)[C@@H]1C(=O)OCc1coc(Cc2ccccc2)c1
categoryLabel: true
--
molecule: CNC(=O)O/N=C(\C)C(C)S(C)(=O)=O (stereo not drawn)
categoryLabel: false
--
molecule: C=CCOC(=O)c1ccccc1N
categoryLabel: false
--
molecule: CCNS(=O)(=O)C(F)(F)C(F)(F)C(F)(F)C(F)(F)C(F)(F)C(F)(F)C(F)(F)C(F)(F)F
categoryLabel: false
--
molecule: N#CC(C#N)=NNc1cccc(Cl)c1
categoryLabel: true
--
molecule: Brc1cccc(-c2ccccc2)c1
categoryLabel: false
--
molecule: ClSC(Cl)(Cl)Cl
categoryLabel: false
--
molecule: CC(Cc1ccc(O)cc1)NCC(O)c1cc(O)cc(O)c1 (stereo not drawn)
categoryLabel: false

Record lookup: outcome of this test for `c1cc[n+]2c(c1)-c1cccc[n+]1CC2` ?
false

One more molecule: `CN/C(=N\[N+](=O)[O-])NCc1cnc(Cl)s1`
false

One more molecule: `ClC(Cl)C(Cl)(Cl)Cl`
false

---

Assay: qHTS assay to identify small molecule antagonists of the estrogen receptor alpha (ER-alpha) signaling pathway using the BG1 cell line in the presence of 0.1 nM 17-beta-estradiol - cell viability counter screen (AID 1259241); further: nearly all actives have a fitted effect of over 40% in size
Conditions: VM7Luc4E2 (BG1) viability, CellTiter-Fluor protease, 22 h, 0.1 nM estradiol agonist added; series mostly up to 92.4 µM
Inconclusive results are not listed. Activity calls are given as the source filed them. Calls follow the shape of the dose curve; as a rule, active = well fitted cell-killing curve with a large enough effect in the repeat runs; inconclusive = weak or mixed curves, or effect the other way; inactive = flat fitted curve, though single readings scatter.
Please state which outcome applies, choosing from t (active), f (inactive)

These recorded examples may help you get a feel for the data.
compound: [Cl-].[Cl-].[Cl-].[Yb+3]
categoryLabel: f
--
compound: CCNc1nc(NC(C)C(C)C)nc(SC)n1 (configuration not stated)
categoryLabel: f
--
compound: Clc1ccc(C(c2ccc(Cl)cc2)C(Cl)Cl)cc1
categoryLabel: f
--
compound: [O]=[Cr](=[O])([OH])[O][Cr](=[O])(=[O])[OH]
categoryLabel: f
--
compound: N#CC(C#N)=NNc1cccc(Cl)c1
categoryLabel: t
--
compound: CCCCCCCc1ccc(O)cc1
categoryLabel: f

Record lookup: outcome of this test for `CCN(CC)CCc1c[nH]c2ccccc12` ?
f
